Assay: soluble on expression in E. coli; label from the status in PepcDB or PDB records
observable: soluble on expression in E. coli

MALYAVDKPLHLTSHDVVEEARRRLSTRRVGHTGTLDPLATGLLLLVTNESTKLVPFLSGEDKEYIAWVSFGATTPTLDAEGPISEEAPARFDRKDLEAALPRFLEVREQVPPLYSAIKVGGKRAYEAAREGKPLALGPRPVRYLEVELLAFDPEPIPHPIAPSARGWRLAERRGRPVRLPRPLGAYPTAVVRLVVGPGTYVRAFARDLGEMLGTKAFLSGLVRTRVGRVGLERAVALSDLSPEKAIPELDVLPFPVVELSHTEARRVLEGMPLPIPAMGYVTLVDSKRRLLAIAEGDGFKLKIRRVFAKEA: soluble
MDTIAFAYMGGKEYEWLFFEVYDRVRRFYRDVRLPINIVYAGKIILPPGTLIRVETASGFVNMYSFEAVVEALYGKLVEMRDDVNDDSITKIFGITTFPIGSRDRYFDIYKKYLGIQVNVGDYHVLALSIKPFFTENKYLFIERVFKGVLHEIGHLYGLSHCHEDCVMNPPKDIKDWDLRTPTYCNTCLRKLKNKEELMPKLQLLEHHHHHH: soluble
MAYNSNSNNNNNNIVVVFDFDKTIIDVDSDNWVIDELGFTDLFNQLLPTMPWNTLMDRMMKELHDQGKTIEEIKQVLRTIPIHPRVVPAIKSAHDLGCELRIVSDANMFFIETIVEHLGISELFSEINSNPGYVDERGTLKISPYHDFTKSPHSCSCGTCPPNMCKGLIIERIQQSLAKEGKKKMIYLGDGAGDYCPSLKLNTEDYVMPRKNFPVWDLISQNPMLIKAAIREWTDGQSMEMILIGTIEEIRLEEEKEKMLTSAENNCKMQTISIGINNVHHEPILPRALRVSQSS: soluble

Sourced from the DeepSol protein solubility set
